Biological target: F508delCFTR (Homo sapiens, UniProt P13569, DEL508-508)
Construct: expressed in transfected cells; host or cells: CFBE41o- human lung-derived epithelial cells (CFBE4lo-F508delCFTR-HRP), doxycycline-inducible
Sequence (P13569 with tags, fused parts or gaps DEL508-508): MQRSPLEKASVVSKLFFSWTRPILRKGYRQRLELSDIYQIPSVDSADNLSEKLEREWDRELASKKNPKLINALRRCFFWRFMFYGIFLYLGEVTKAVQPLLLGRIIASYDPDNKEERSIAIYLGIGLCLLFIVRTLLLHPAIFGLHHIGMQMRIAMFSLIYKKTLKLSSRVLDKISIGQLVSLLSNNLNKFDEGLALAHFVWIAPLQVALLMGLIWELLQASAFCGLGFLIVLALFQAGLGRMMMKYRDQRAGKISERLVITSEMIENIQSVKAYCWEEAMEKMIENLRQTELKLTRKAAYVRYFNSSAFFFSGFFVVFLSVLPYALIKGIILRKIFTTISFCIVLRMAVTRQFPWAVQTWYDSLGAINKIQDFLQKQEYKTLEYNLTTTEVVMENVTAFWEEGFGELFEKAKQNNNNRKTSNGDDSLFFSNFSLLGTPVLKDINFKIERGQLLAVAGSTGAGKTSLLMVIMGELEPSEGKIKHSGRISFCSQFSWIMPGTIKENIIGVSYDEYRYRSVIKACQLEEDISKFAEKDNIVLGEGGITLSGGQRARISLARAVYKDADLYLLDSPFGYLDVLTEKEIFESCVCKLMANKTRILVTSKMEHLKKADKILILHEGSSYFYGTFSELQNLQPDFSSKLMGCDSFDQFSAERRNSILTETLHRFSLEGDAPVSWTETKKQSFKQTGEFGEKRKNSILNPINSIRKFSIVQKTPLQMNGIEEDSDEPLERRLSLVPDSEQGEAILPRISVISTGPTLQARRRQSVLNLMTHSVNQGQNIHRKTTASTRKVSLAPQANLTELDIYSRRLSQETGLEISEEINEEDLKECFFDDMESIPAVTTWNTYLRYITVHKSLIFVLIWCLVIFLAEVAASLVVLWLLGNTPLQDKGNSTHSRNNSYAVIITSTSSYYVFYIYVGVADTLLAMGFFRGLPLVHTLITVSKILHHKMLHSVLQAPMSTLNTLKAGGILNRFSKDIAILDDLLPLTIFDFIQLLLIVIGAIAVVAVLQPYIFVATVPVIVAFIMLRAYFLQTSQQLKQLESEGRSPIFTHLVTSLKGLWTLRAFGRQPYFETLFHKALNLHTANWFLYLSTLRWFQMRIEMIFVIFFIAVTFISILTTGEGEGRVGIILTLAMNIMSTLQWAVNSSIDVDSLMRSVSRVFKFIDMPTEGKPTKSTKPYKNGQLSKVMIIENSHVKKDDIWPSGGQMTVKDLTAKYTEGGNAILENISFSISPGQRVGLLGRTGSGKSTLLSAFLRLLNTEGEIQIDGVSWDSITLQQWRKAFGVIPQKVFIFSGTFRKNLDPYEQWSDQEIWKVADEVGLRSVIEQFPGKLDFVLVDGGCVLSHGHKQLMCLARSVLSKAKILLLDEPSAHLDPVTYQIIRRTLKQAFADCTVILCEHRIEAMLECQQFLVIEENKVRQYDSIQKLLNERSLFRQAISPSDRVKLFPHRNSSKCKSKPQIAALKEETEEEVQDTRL
Test: Cell Surface Expression-Horse Radish Peroxidase (CSE-HRP) Assay
Type: cell-based
Details: with co-corrector (2 μM of 3-[(2R,4R)-4-({[1-(2,2-difluoro-1,3-benzodioxol-5-yl)cyclopropyl]carbonyl}amino)-7-methoxy-3,4-dihydro-2H-chromen-2-yl]benzoic acid); read-out: EC50 (with co-corrector)
quantity-measured: EC50

Examples with answers:
COc1ccc(C(F)(F)F)cc1CN[C@H]1[C@H](C(C)(C)C)[C@@H](C(=O)O)N(C(=O)[C@@H]2OCC[C@@H]2C(C)C)[C@H]1c1ccccc1 (relative stereo)	1 to 10 µM
COc1ccc(C(C)(C)C)cc1CN[C@H]1[C@H](C(C)(C)C)[C@@H](C(=O)O)N(C(=O)C2CCc3cccc(OC)c3C2)[C@H]1c1ccccc1 (stereo partly shown)	< 1 µM

# return recorded EC50 for entry CO[C@H](C(=O)N1[C@H](c2ccccc2)[C@H](Nc2cc(C(F)(F)F)cc(C)n2)[C@@H](C(C)(C)C)[C@@H]1C(=O)O)c1ccccc1 (relative stereo)
1 to 10 µM

Return reported EC50. Input molecule: COc1ncc(C(F)(F)F)cc1CN[C@H]1[C@H](C2(C)CC2)[C@@H](C(=O)O)N(C(=O)C2CCCCC2)[C@H]1c1ccccc1
1 to 10 µM

Note down EC50 recorded for COc1ccc(C(C)(C)C)cc1CN[C@H]1[C@H](C(C)(C)C)[C@@H](C(=O)O)N(C(=O)[C@@H](C)c2ccccc2)[C@H]1c1ccccc1
< 1 µM

Give recorded EC50. COc1ccc(C(C)(C)C)cc1CN[C@H]1[C@H](C(C)(C)C)[C@@H](C(=O)O)N(C(=O)[C@H]2CCC[C@H](OC)C2)[C@H]1c1cccnc1N(C)C (relative stereo)
1 to 10 µM

Provide measured EC50 value, entry: COc1ccc(C(F)(F)F)cc1CN[C@H]1[C@H](C(C)(C)C)[C@@H](C(=O)O)N(C(=O)[C@@H]2CCC[C@@H](OC)C2)[C@H]1c1ccccc1
1 to 10 µM

----------
Target: F508delCFTR (Homo sapiens, UniProt P13569, DEL508-508)
Construct: expressed in transfected cells; host or cells: CFBE41o- human lung-derived epithelial cells (CFBE4lo-F508delCFTR-HRP), doxycycline-inducible
Test: Cell Surface Expression-Horse Radish Peroxidase (CSE-HRP) Assay
Type: cell-based
Details: with co-corrector (2 μM of 3-[(2R,4R)-4-({[1-(2,2-difluoro-1,3-benzodioxol-5-yl)cyclopropyl]carbonyl}amino)-7-methoxy-3,4-dihydro-2H-chromen-2-yl]benzoic acid); read-out: EC50 (with co-corrector)
EC50: recorded values

CO[C@H](C(=O)N1[C@H](C(=O)O)[C@@H](C(C)(C)C)[C@H](Nc2cc(C(F)(F)F)cc(C)n2)[C@@H]1c1ccccc1)c1ccccc1	1000 to 10000 nM

Enter recorded EC50 with F508delCFTR (Homo sapiens, UniProt P13569, DEL508-508) for COc1ccc(C(C)(C)C)cc1CN[C@@H]1[C@@H](C(C)(C)C)[C@H](C(=O)O)N(C(=O)C2CCCCC2)[C@@H]1c1ccccc1 (racemic) here.
< 1000 nM

Answer with EC50 of COc1ccc(C(C)(C)C)cc1CN[C@H]1[C@H](C(C)(C)C)[C@@H](C(=O)O)N(C(=O)CN2CCCCCC2)[C@H]1c1ccccc1 measured for F508delCFTR (Homo sapiens, UniProt P13569, DEL508-508).
1000 to 10000 nM

Please report the measured EC50 for COc1nc(C(C)(C)C)ncc1CN[C@H]1[C@H](C(C)(C)C)[C@@H](C(=O)O)N(C(=O)C2CCCC(F)(F)C2)[C@H]1c1ccccc1 (relative stereo) tested on F508delCFTR (Homo sapiens, UniProt P13569, DEL508-508).
1000 to 10000 nM

Where do the numbers come from? From patent US20180099931A1.
